Let's go through some AC50 measurements on Beta-2 adrenergic receptor (Homo sapiens, UniProt P07550) together.
Sequence (P07550 whole entry): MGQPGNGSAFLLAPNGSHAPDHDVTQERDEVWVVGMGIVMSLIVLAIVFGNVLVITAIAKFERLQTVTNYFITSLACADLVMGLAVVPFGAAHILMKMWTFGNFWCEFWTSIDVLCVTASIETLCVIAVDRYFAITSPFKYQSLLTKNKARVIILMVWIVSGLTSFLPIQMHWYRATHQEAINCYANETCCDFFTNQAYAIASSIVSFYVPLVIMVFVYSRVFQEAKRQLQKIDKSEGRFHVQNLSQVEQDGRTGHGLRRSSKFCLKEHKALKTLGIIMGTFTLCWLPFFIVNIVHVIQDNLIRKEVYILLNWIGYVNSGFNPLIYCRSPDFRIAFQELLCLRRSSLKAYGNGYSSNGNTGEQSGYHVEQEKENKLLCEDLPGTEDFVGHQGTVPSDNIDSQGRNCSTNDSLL

Known results for compounds:
COMPOUND	AC50
COc1cc2c(N)nc(N3CCN(C(=O)OCC(C)(C)O)CC3)nc2c(OC)c1OC	> 30 µM
CC1(C)O[C@@H]2C[C@H]3[C@@H]4CCC5=CC(=O)C=C[C@]5(C)[C@H]4[C@@H](O)C[C@]3(C)[C@]2(C(=O)CO)O1 [DESONIDE]	> 10 µM
Clc1ccccc1C(c1ccccc1)(c1ccccc1)n1ccnc1	15 µM
CC(=O)O[C@H]1CC[C@@]2(C)C(=CC[C@@H]3[C@@H]2CC[C@]2(C)C(c4cccnc4)=CC[C@@H]32)C1 [ABIRATERONE ACETATE]	> 10 µM
CCCSc1ccc2nc(NC(=O)OC)[nH]c2c1	> 30 µM

Task item: State the recorded AC50 for this entry: CC[C@H]1CN2CCc3cc(OC)c(OC)cc3[C@@H]2C[C@@H]1C[C@H]1NCCc2cc(OC)c(OC)cc21
Reply: > 30 µM

Task item: Now consider O=C(O)C1=C(CSc2nnnn2CS(=O)(=O)O)CS[C@@H]2[C@H](NC(=O)[C@H](O)c3ccccc3)C(=O)N12 .
Reply: > 30 µM

---

# EXPERIMENTAL TARGET: Histamine H1 receptor (Homo sapiens, UniProt P35367); note: assay procedure not described here
# Sequence (P35367 whole entry): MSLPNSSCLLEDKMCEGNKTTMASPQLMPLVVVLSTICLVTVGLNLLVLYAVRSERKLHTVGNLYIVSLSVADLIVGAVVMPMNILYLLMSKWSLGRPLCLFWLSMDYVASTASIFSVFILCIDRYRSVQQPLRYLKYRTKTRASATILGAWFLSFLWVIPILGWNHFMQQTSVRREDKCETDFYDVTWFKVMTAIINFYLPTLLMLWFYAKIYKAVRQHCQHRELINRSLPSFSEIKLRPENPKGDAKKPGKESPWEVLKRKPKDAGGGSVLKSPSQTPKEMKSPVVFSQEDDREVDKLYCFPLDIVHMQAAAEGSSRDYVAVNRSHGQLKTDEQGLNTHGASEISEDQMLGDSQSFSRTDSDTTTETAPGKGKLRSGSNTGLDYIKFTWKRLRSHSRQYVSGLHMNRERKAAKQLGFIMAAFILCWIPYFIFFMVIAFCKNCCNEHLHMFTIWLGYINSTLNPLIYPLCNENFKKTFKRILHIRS
# Type: functional, cell-based
Measured AC50 accompanies every entry in the list below.

Known results for compounds:
COMPOUND	MEASURED
Nc1nc(NC2CC2)c2ncn([C@H]3C=C[C@@H](CO)C3)c2n1	> 30 µM
CN1CCC(=C2c3ccccc3CCc3sccc32)CC1	0.0681 µM
CCN(CC)C(=O)N[C@H]1C[C@@H]2c3cccc4[nH]cc(c34)C[C@H]2N(C)C1 [TERGURIDE]	7.49 µM
NC(=O)CN1CC(O)CC1=O (stereo not given)	> 30 µM
O=C(NCCNCC(O)COc1ccc(O)cc1)N1CCOCC1 (stereo not given)	> 30 µM

Task item: State the recorded AC50 for this entry: CCOc1ccccc1OCC1CNCCO1 (stereo not given)
Reply: > 30 µM

Task item: Now consider CC[C@@H]1C(=O)OC[C@@H]1Cc1cncn1C .
Reply: > 30 µM

Task item: Now consider CC(C)OC(=O)CCC/C=C\C[C@@H]1[C@@H](CC[C@@H](O)CCc2ccccc2)[C@H](O)C[C@@H]1O .
Reply: > 30 µM

Task item: Now consider CCCCc1ncc(/C=C(\Cc2cccs2)C(=O)O)n1Cc1ccc(C(=O)O)cc1 .
Reply: > 30 µM

Task item: Now consider NCC(=O)CCC(=O)O .
Reply: > 30 µM

---

Let's go through some AC50 measurements on UniProt P32245 together.
Sequence (P32245 whole entry): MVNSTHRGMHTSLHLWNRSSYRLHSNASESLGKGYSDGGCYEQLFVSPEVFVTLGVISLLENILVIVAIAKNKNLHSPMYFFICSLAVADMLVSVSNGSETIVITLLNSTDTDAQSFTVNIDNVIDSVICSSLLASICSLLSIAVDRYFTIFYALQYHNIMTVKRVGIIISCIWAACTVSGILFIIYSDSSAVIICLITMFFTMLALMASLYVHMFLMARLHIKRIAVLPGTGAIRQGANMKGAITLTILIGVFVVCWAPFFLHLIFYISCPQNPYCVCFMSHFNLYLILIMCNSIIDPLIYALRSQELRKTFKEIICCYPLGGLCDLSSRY

COMPOUND	EXPERIMENTAL TARGET	AC50
C=CCC1(CC(C)C)C(=O)NC(=O)NC1=O [BUTALBITAL]	UniProt P32245	> 10 µM
CCCC(C)C1(CC)C(=O)NC(=O)NC1=O (stereo unspecified) [PENTOBARBITAL]	UniProt P32245	> 10 µM
Cc1ccc(-c2cc(C(F)(F)F)nn2-c2ccc(S(N)(=O)=O)cc2)cc1 [CELECOXIB]	UniProt P32245	> 10 µM
C[C@]1(O)CC[C@H]2[C@@H]3CCC4=CC(=O)CC[C@]4(C)[C@@]3(F)[C@@H](O)C[C@@]21C [FLUOXYMESTERONE]	UniProt P32245	> 10 µM
C=CCN1C[C@H](C(=O)N(CCCN(C)C)C(=O)NCC)C[C@@H]2c3cccc4[nH]cc(c34)C[C@H]21 [CABERGOLINE]	UniProt P32245	> 10 µM

Task item: Recall the recorded AC50 for NC(=O)OCC(COC(N)=O)c1ccccc1 [FELBAMATE] with UniProt P32245 and state it.
Reply: > 10 µM

Task item: Now consider C[C@H](N)[C@H](O)c1cccc(O)c1 [METARAMINOL] .
Reply: > 10 µM

Task item: Now consider CCCC1O[C@@H]2C[C@H]3[C@@H]4CCC5=CC(=O)C=C[C@]5(C)[C@H]4[C@@H](O)C[C@]3(C)[C@]2(C(=O)CO)O1 (stereo partly specified) [BUDESONIDE] .
Reply: > 10 µM

Task item: Now consider C=CCC1(C(C)CC)C(=O)NC(=O)NC1=O (stereo unspecified) [TALBUTAL] .
Reply: > 10 µM

Task item: Now consider CNS(=O)(=O)Cc1ccc2[nH]cc(CCN(C)C)c2c1 .
Reply: > 30 µM

Task item: Now consider COc1ccc(C(=O)Nc2ccccc2CCC2CCCCN2C)cc1 (stereo unspecified) [ENCAINIDE] .
Reply: > 30 µM

Task item: Now consider O=C1Nc2ccc(Cl)cc2[C@@](C#CC2CC2)(C(F)(F)F)O1 [EFAVIRENZ] .
Reply: > 30 µM

Task item: Now consider COc1cc2nc(N3CCN(C(=O)c4ccco4)CC3)nc(N)c2cc1OC [PRAZOSIN] .
Reply: > 30 µM

---

Let's go through some AC50 measurements on Motilin receptor (Homo sapiens) together.
Sequence (O43193 whole entry): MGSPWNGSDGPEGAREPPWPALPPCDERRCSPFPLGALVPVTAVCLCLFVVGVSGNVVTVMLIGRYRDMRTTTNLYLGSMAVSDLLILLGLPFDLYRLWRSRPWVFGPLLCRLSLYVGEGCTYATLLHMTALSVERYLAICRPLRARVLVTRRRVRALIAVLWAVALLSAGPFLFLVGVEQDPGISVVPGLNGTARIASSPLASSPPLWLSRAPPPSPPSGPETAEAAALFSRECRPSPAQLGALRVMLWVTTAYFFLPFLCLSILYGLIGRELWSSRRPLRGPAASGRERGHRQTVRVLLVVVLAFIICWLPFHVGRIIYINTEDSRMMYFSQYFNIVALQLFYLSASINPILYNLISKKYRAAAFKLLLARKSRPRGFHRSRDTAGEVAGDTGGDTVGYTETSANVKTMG

MOLECULE	AC50
Cc1ccc(-c2cc(C(F)(F)F)nn2-c2ccc(S(N)(=O)=O)cc2)cc1	> 10 µM
CN1C(=O)C(O)N=C(c2ccccc2Cl)c2cc(Cl)ccc21 (stereo not given)	> 30 µM
Nc1nc(NC2CC2)c2ncn([C@H]3C=C[C@@H](CO)C3)c2n1	> 30 µM

Task item: State the recorded AC50 for this entry: O=C(O[C@H]1C[C@H]2CC[C@@H](C1)[N+]21CCCC1)C(O)(c1ccccc1)c1ccccc1
Reply: > 30 µM

Task item: Now consider CCC(C(=O)O)c1ccc(N2Cc3ccccc3C2=O)cc1 (stereo not given) .
Reply: > 30 µM

Task item: Now consider CC(C)(C)c1cc(C(C)(C)C)c(NC(=O)c2c[nH]c3ccccc3c2=O)cc1O .
Reply: > 10 µM

Task item: Now consider C=CCN1CCCC1CNC(=O)c1cc(S(N)(=O)=O)cc(OC)c1OC (stereo not given) [VERALIPRIDE] .
Reply: > 30 µM

Task item: Now consider c1cnc(N2CCN(Cc3ccc4c(c3)OCO4)CC2)nc1 .
Reply: > 30 µM

Task item: Now consider COc1ccccc1OCC(O)CN1CCN(CC(=O)Nc2c(C)cccc2C)CC1 (stereo not given) .
Reply: > 30 µM

Task item: Now consider NCC[C@H](O)C(=O)N[C@@H]1C[C@H](N)[C@@H](O[C@H]2O[C@H](CN)[C@@H](O)[C@H](O)[C@H]2O)[C@H](O)[C@H]1O[C@H]1O[C@H](CO)[C@@H](O)[C@H](N)[C@H]1O .
Reply: > 10 µM

Task item: Now consider Nc1nc(/C(=C/CC(=O)O)C(=O)N[C@@H]2C(=O)N3C(C(=O)O)=CCS[C@H]23)cs1 .
Reply: > 30 µM

Task item: Now consider CC1(C)NC(=O)N(c2ccc([N+](=O)[O-])c(C(F)(F)F)c2)C1=O [NILUTAMIDE] .
Reply: > 30 µM

Task item: Now consider Brc1c(NC2=NCCN2)ccc2nccnc12 .
Reply: > 30 µM

Task item: Now consider Clc1ccc2nsnc2c1NC1=NCCN1 .
Reply: > 10 µM

Task item: Now consider CCN1CCN(C(=O)N[C@@H](C(=O)N[C@@H]2C(=O)N3C(C(=O)O)=C(CSc4nnnn4C)CS[C@H]23)c2ccc(O)cc2)C(=O)C1=O .
Reply: > 30 µM

Task item: Now consider C=CCN1C[C@H](C(=O)N(CCCN(C)C)C(=O)NCC)C[C@@H]2c3cccc4[nH]cc(c34)C[C@H]21 .
Reply: > 10 µM

Task item: Now consider COCCCN1CCC(NC(=O)c2cc(Cl)c(N)c3c2OCC3)CC1 [PRUCALOPRIDE] .
Reply: > 30 µM

Task item: Now consider C[N+]1(C)CCC(OC(=O)C(O)(c2ccccc2)C2CCCC2)C1 (stereo not given) [GLYCOPYRRONIUM BROMIDE] .
Reply: > 10 µM

Task item: Now consider COc1cc2nc(N(C)CCCNC(=O)C3CCCO3)nc(N)c2cc1OC (stereo not given) .
Reply: > 30 µM

Task item: Now consider CC1=C(C(=O)O)N2C(=O)[C@@H](NC(=O)[C@H](N)c3ccccc3)[C@H]2SC1 [CEPHALEXIN ANHYDROUS] .
Reply: > 10 µM

Task item: Now consider COc1ccc(CC(C)(C)NC[C@H](O)c2cc(O)cc3c2OCC(=O)N3)cc1 .
Reply: > 30 µM

Task item: Now consider c1ccc([C@H]2CN3CCSC3=N2)cc1 .
Reply: > 30 µM

Task item: Now consider COc1ccccc1OCCNCC(O)c1ccc(C)c(S(N)(=O)=O)c1 (stereo not given) .
Reply: > 30 µM

Task item: Now consider C1CCC(C(CC2CCCCN2)C2CCCCC2)CC1 (stereo not given) .
Reply: 29 µM

Task item: Now consider CCCN(CCC)C(=O)C(CCC(=O)O)NC(=O)c1ccccc1 (stereo not given) [PROGLUMIDE] .
Reply: > 30 µM
